assay: Solubility of the compound at pH 6.8 by high throughput equilibrium method; assay type: physicochemical; conditions: buffer
MEASURE_NAME: solubility thermodynamic (µM)

As a guide, the following entries are already answered.
CC(C)(C)c1ncc2c(n1)-c1sc(NC(=O)N3CC[C@@H]4C[C@@]43C(N)=O)nc1CC2; 51
C[C@@H]1CCN(C(=O)Nc2nc3c(s2)-c2nc(C(C)(C)C(F)(F)F)sc2CC3)[C@@H]1C(N)=O; 14
CC(C)(C)c1nc2c(s1)CCc1nc(NC(=O)N3CCC[C@@]3(C)C(N)=O)sc1-2; 310
C[C@@H]1CCN(C(=O)Nc2nc3c(s2)-c2nc(C(C)(C)C)ncc2CC3)[C@@H]1C(N)=O; 71
C[C@@H]1CCN(C(=O)Nc2nc3c(s2)-c2nc(C(C)(C)C(F)(F)F)ncc2CC3)[C@@H]1C(N)=O; 9

(1) C[C@@H]1CCN(C(=O)Nc2nc3c(s2)-c2nc(C(C)(C)C)sc2CC3)[C@@H]1C(N)=O
(2) NC(=O)[C@@H]1CCCN1C(=O)Nc1nc2c(s1)-c1nc(CC3CC3)sc1CC2
# argmax over solubility thermodynamic for candidates 1 and 2 Response format: the label of the selected entry.
2
